# RUN_DESCRIPTION: Inhibition of HCV NS5b RNA polymerase assessed as [3H]UTP incorporation into RNA
# Set-up: species or system Hepacivirus hominis
pIC50: −log10 of the molar value.
PROPERTY_LABEL: pIC50

Cc1cnc(CNC(=O)Nc2ccc(Br)cc2C(=O)N2C[C@H](C)C[C@H](C)C2)cn1 : 6.44

1: COC(=O)CCC(=O)Nc1ccc(Br)cc1C(=O)N1C[C@H](C)C[C@H](C)C1
2: C[C@@H]1C[C@H](C)CN(C(=O)c2cc(Br)ccc2NC(=O)CCC(=O)O)C1
Query block: From the items above, decide which of 1 and 2 has the lower pIC50 reading. Return value: the label identifying the chosen record.
Result block: 1
(1: 5.68, 2: 6.00)

====

# RUN_DESCRIPTION: Inhibition of HCV NS5b RNA polymerase assessed as [3H]UTP incorporation into RNA
# Design: species or system Hepacivirus hominis
pIC50: −log10 of the molar value.
PROPERTY_LABEL: pIC50

C[C@@H]1C[C@H](C)CN(C(=O)c2cc(Br)ccc2NC(=O)CNC(=O)c2ccccc2)C1 : 6.89

P: C[C@@H]1C[C@H](C)CN(C(=O)c2cc(Br)ccc2NC(=O)CCC(=O)c2cccnc2)C1
Q: Nc1ccc(Br)cc1C(=O)N1CCc2ccccc2C1
R: CC(=O)Nc1ccc(Br)cc1C(=O)N1C[C@H](C)C[C@H](C)C1
S: O=C(O)CCC(=O)Nc1ccc(Br)cc1C(=O)N1CCSCC1
T: C[C@@H]1C[C@H](C)CN(C(=O)c2cc(Br)ccc2NC(=O)CNC(=O)c2ccco2)C1
Query block: Rank ascending by pIC50. Reply: labels, ordered per the request.
Result block: S, Q, R, P, T
(S: 3.27, Q: 3.88, R: 4.96, P: 6.23, T: 6.60)

====

# RUN_DESCRIPTION: Inhibition of HCV NS5b RNA polymerase assessed as [3H]UTP incorporation into RNA
# Parameters: species or system Hepacivirus hominis
PROPERTY_LABEL: IC50 (µM)

Reference set, count: 3
C[C@@H]1CN(C(=O)c2cc(Br)ccc2N)C[C@H](C)O1 : 190
C[C@@H]1C[C@H](C)CN(C(=O)c2cc(Br)ccc2NC(=O)CCCC(=O)O)C1 : 9
C[C@@H]1C[C@H](C)CN(C(=O)c2cc(Br)ccc2NS(C)(=O)=O)C1 : 7.5

1: C[C@@H]1C[C@H](C)CN(C(=O)c2cc(Br)ccc2NC(=O)CCC(=O)c2cccs2)C1
2: C[C@@H]1C[C@H](C)CN(C(=O)c2cc(Br)ccc2NC(=O)NCc2ccc(N(C)C)cc2)C1
Query block: Which value of IC50 is numerically greater: that of 1 or that of 2 ? Return value: the label identifying the chosen record.
Result block: 2
(2: 1 µM, 1: 0.44 µM)

====

# RUN_DESCRIPTION: Binding affinity to HCV NS5b RNA polymerase by SPR assay
# Set-up: species or system Hepacivirus hominis
PROPERTY_LABEL: Kd (nM)

C[C@@H]1CN(C(=O)c2cc(Br)ccc2N)C[C@H](C)O1 : 36000
C[C@@H]1C[C@H](C)CN(C(=O)c2cc(Br)ccc2NC(=O)CCC(=O)c2cccs2)C1 : 970
Nc1ccc(Br)cc1C(=O)N1CCc2ccccc2C1 : 210000
C[C@@H]1C[C@H](C)CN(C(=O)c2cc(Br)ccc2NC(=O)CNC(=O)c2cccnc2)C1 : 570

P: C[C@@H]1C[C@H](C)CN(C(=O)c2cc(Br)ccc2NC(=O)NCC(=O)N(C)C)C1
Q: C[C@@H]1C[C@H](C)CN(C(=O)c2cc(Br)ccc2NC(=O)CCC(=O)N(C)C)C1
R: C[C@@H]1C[C@H](C)CN(C(=O)c2cc(Br)ccc2NC(=O)[C@@H]2C[C@@H](O)CN2C(=O)c2ccco2)C1
S: CC1CCCN(C(=O)c2cc(Br)ccc2N)C1 (stereo not drawn)
T: C[C@@H]1C[C@H](C)CN(C(=O)c2cc(Br)ccc2NC(=O)[C@@H]2CCCN2C(=O)c2cccnc2)C1
Query block: Order the records so the highest Kd appears first and the lowest last. Reply: labels, ordered per the request.
Result block: S, T, P, Q, R
(S: 192000 nM, T: 1280 nM, P: 460 nM, Q: 300 nM, R: 150 nM)

====

# RUN_DESCRIPTION: Inhibition of HCV NS5b RNA polymerase assessed as [3H]UTP incorporation into RNA
# Design: species or system Hepacivirus hominis
PROPERTY_LABEL: IC50

Nc1ccc(Br)cc1C(=O)N1CCCC1 : > 500 µM
Nc1ccc(Br)cc1C(=O)N1CCOCC1 : > 500 µM
C[C@@H]1C[C@H](C)CN(C(=O)c2cc(Br)ccc2NC(=O)CCC(=O)N2CCOCC2)C1 : 0.25 µM

Query block: Give recorded IC50. `O=C(O)CCC(=O)Nc1ccc(Br)cc1C(=O)NCC1CCCCC1`
Result block: > 500 µM

====

# RUN_DESCRIPTION: Inhibition of HCV NS5b RNA polymerase assessed as [3H]UTP incorporation into RNA
# Set-up: species or system Hepacivirus hominis
pIC50: −log10 of the molar value.
PROPERTY_LABEL: pIC50

Reference set, count: 5
C[C@@H]1C[C@H](C)CN(C(=O)c2cc(Br)ccc2NC(=O)[C@@H]2C[C@@H](O)CN2C(=O)c2ccco2)C1 : 5.99
C[C@@H]1C[C@H](C)CN(C(=O)c2cc(Br)ccc2NC(=O)CCC(N)=O)C1 : 5.37
Cc1cc(CNC(=O)Nc2ccc(Br)cc2C(=O)N2C[C@H](C)C[C@H](C)C2)nn1C : 6.77
C[C@@H]1C[C@H](C)CN(C(=O)c2cc(Br)ccc2NC(=O)[C@@H]2CCCN2C(=O)c2cccnc2)C1 : 6.46
CC1CCCN(C(=O)c2cc(Br)ccc2N)C1 (stereo not given) : 3.77

A: C[C@@H]1C[C@H](C)CN(C(=O)c2cc(Br)ccc2NC(=O)CNC(=O)c2cccnc2)C1
B: C[C@@H]1C[C@H](C)CN(C(=O)c2cc(Br)ccc2N)C1
Query block: From the items above, decide which of A and B has the lower pIC50 reading. Return value: the label identifying the chosen record.
Result block: B
(B: 4.77, A: 6.37)

I: C[C@@H]1C[C@H](C)CN(C(=O)c2cc(Br)ccc2NC(=O)NCC(=O)N(C)C)C1
II: Nc1ccc(Br)cc1C(=O)Nc1ccccc1Cl
Query block: Which value of pIC50 is numerically greater: that of I or that of II ? Return value: the label identifying the chosen record.
Result block: I

A: C[C@@H]1C[C@H](C)CN(C(=O)c2cc(Br)ccc2NC(=O)CCC(=O)N(C)C)C1
B: C[C@@H]1C[C@H](C)CN(C(=O)c2cc(Br)ccc2NC(=O)CC(=O)N(C)C)C1
Query block: Which value of pIC50 is numerically greater: that of A or that of B ? Return value: the label identifying the chosen record.
Result block: A
(A: 6.40, B: 4.96)

====

# RUN_DESCRIPTION: Binding affinity to HCV NS5b RNA polymerase by SPR assay
# Design: species or system Hepacivirus hominis
pKd: −log10 of the molar value.
PROPERTY_LABEL: pKd

CC(=O)Nc1ccc(Br)cc1C(=O)N1C[C@H](C)C[C@H](C)C1 : 5.77
C[C@@H]1C[C@H](C)CN(C(=O)c2cc(Br)ccc2NC(=O)CNC(=O)c2ccccc2)C1 : 6.27
C[C@@H]1C[C@H](C)CN(C(=O)c2cc(Br)ccc2NC(=O)NCc2ccc(N(C)C)cc2)C1 : 6.10
Cc1cc(CNC(=O)Nc2ccc(Br)cc2C(=O)N2C[C@H](C)C[C@H](C)C2)nn1C : 6.43
C[C@@H]1C[C@H](C)CN(C(=O)c2cc(Br)ccc2NC(=O)CCC(=O)c2cccnc2)C1 : 5.98

P: C[C@@H]1C[C@H](C)CN(C(=O)c2cc(Br)ccc2NC(=O)CNC(=O)c2ccco2)C1
Q: Cc1cnc(CNC(=O)Nc2ccc(Br)cc2C(=O)N2C[C@H](C)C[C@H](C)C2)cn1
R: C[C@@H]1C[C@H](C)CN(C(=O)c2cc(Br)ccc2NC(=O)CCC(N)=O)C1
S: C[C@@H]1C[C@H](C)CN(C(=O)c2cc(Br)ccc2NC(=O)CCC(=O)c2ccccn2)C1
Query block: Rank ascending by pKd. Reply: labels, ordered per the request.
Result block: R, S, P, Q

====

Reported pIC50 is given for each of the following compounds.
# RUN_DESCRIPTION: Inhibition of HCV NS5b RNA polymerase assessed as [3H]UTP incorporation into RNA
# Set-up: species or system Hepacivirus hominis
pIC50: −log10 of the molar value.

Nc1ccc(Br)cc1C(=O)N1CCCCC1 : < 3.30
Nc1ccc(Br)cc1C(=O)NCc1ccccc1 : < 3.30
CC(C)NC(=O)c1cc(Br)ccc1NC(=O)CCC(=O)O : < 3.30

Read the next record carefully.
Query block: Give recorded pIC50. `C[C@@H]1C[C@H](C)CN(C(=O)c2cc(Br)ccc2NC(=O)CCC(=O)c2ccccn2)C1`
Result block: 6.27
